Would you kindly list Ulcer Index (%) for each of these compounds?
# Test system: gastric necrosis in rats
# experiment_summary: Action to gastric necrosis in rats (absolute ethanol)
# Type: in vivo, Male Sprague-Dewley rats
# test_settings: 100 mg/kg, po; 1 hour before absolute ethanol; inhibition ratio

Some compounds with known Ulcer Index (%) results, for comparison:
compound	Ulcer Index (%)
CC(C)=CCCC(C)=CCCC(C)=CCCC(C)=CCCC(C)=CCCC(C)=CCCC(C)=CCCC(C)=CCCC(C)=CCCC(C)=CCSCCNC(=O)C1(C)CCC2(C)CCC3(C)C(=CCC4C5(C)CCC(OC(=O)C=CC(=O)O)C(C)(C)C5CCC43C)C2C1 (stereo not shown) [Compound 4e]	-34.7%
CC(C)=CCCC(C)=CCCC(C)=CCCC(C)=CCCC(C)=CCCC(C)=CCCC(C)=CCCC(C)=CCCC(C)=CCCC(C)=CCSCCNC(=O)C1(C)CCC2(C)CCC3(C)C(=CC(=O)C4C5(C)CCC(OC(=O)C=CC(=O)O)C(C)(C)C5CCC43C)C2C1 (stereo not shown) [Compound 4k]	14.3%
CC(C)=CCCC(C)=CCCC(C)=CCCC(C)=CCSCCNC(=O)[C@@]1(C)CC[C@]2(C)CC[C@]3(C)C(=CC[C@@H]4[C@@]5(C)CC[C@H](OC(=O)/C=C\C(=O)O)C(C)(C)[C@@H]5CC[C@]43C)[C@@H]2C1 [Compound 4c]	48.9%

Bench note: what Ulcer Index (%) did CC(C)=CCCC(C)=CCCC(C)=CCCC(C)=CCCC(C)=CCCC(C)=CCCC(C)=CCCC(C)=CCCC(C)=CCSCCNC(=O)C1(C)CCC2(C)CCC3(C)C(=CCC4C5(C)CCC(OC(=O)C=CC(=O)O)C(C)(C)C5CCC43C)C2C1 (stereo not shown) [Compound 4d] show? 39.2%

The reported measurements were obtained from patent US4871740A.
